Where do the numbers come from? From patent US10793568B2.

- target.or.test.system: ligand binding domain of human FXR (Homo sapiens (Human))
- Sequence (Q96RI1 262-486): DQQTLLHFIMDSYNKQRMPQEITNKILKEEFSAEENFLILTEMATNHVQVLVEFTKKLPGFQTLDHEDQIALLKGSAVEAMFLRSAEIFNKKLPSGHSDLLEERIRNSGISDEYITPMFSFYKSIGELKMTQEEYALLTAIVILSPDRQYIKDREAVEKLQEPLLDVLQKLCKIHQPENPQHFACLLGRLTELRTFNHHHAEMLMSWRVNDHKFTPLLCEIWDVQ
- procedure.text: FXR ligand binding assay (LanthaScreen TR-FRET, SRC2-2 peptide recruitment)
- measurement.parameters: extent of activation relative to GW4064; read-out: % Efficacy
Below, each entry is listed alongside its reported Emax.

molecule	unit.descriptor	Emax
CCc1cc(C(=O)O)cc2sc(N3C(=O)[C@@H]4C[C@H]3C[C@H]4OCc3c(-c4c(Cl)cccc4Cl)noc3C3CC3)nc12 [Compound I-294]	%	82
O=C(NS(=O)(=O)C1CCC1)c1ccc(N2C[C@@H]3C[C@H]2C[C@H]3OCc2c(-c3c(Cl)cccc3Cl)noc2C2CC2)cc1 [Compound I-183]	%	163
CCCS(=O)(=O)NC(=O)c1cc(F)c2nc(N3C[C@@H]4C[C@H]3C[C@H]4OCc3c(-c4c(Cl)cccc4Cl)noc3C3CC3)sc2c1 [Compound I-29]	%	194
CC(C)(Cc1ccc(N2C[C@@H]3C[C@H]2C[C@H]3OCc2c(-c3c(Cl)cccc3Cl)noc2C2CC2)cc1F)C(=O)O [Compound I-156]	%	128
CCCS(=O)(=O)NC(=O)c1ccc(N2C[C@@H]3C[C@H]2C[C@H]3OCc2c(-c3c(Cl)cccc3Cl)noc2C2CC2)nc1 [Compound I-204]	%	136
O=C(O)C1(c2ccc(N3C[C@@H]4C[C@H]3C[C@H]4OCc3c(-c4c(Cl)cccc4Cl)noc3C3CC3)cc2)CC1 [Compound I-149]	%	106
O=C(NS(=O)(=O)C1CCOCC1)c1ccc(N2C(=O)[C@@H]3C[C@H]2C[C@H]3OCc2c(-c3c(Cl)cccc3Cl)noc2C2CC2)cn1 [Compound I-352]	%	154
O=C(NS(=O)(=O)CCCO)c1ccc(N2C[C@@H]3C[C@H]2C[C@H]3OCc2c(-c3c(Cl)cccc3Cl)noc2C2CC2)cc1 [Compound I-215]	%	142
CS(=O)(=O)NC(=O)c1cc(F)c2nc(N3C[C@@H]4C[C@H]3C[C@H]4OCc3c(-c4c(Cl)cccc4Cl)noc3C3CC3)sc2c1 [Compound I-28]	%	153
C[C@H]1[C@H]2C[C@H](C[C@@H]2OCc2c(-c3c(Cl)cccc3Cl)noc2C2CC2)N1c1ccc(C(=O)NS(=O)(=O)C2CCOCC2)nc1 [Compound I-372]	%	22
O=C(O)c1cc(C2CC2)c2nc(N3C[C@@H]4C[C@H]3C[C@H]4OC(=O)c3c(-c4c(Cl)cccc4Cl)noc3C3CC3)sc2c1 [Compound I-4]	%	166
Cc1cc(C(=O)NO)ccc1N1C[C@@H]2C[C@H]1C[C@H]2OCc1c(-c2c(Cl)cccc2Cl)noc1C1CC1 [Compound I-139]	%	132
O=C(O)c1cc([C@H]2CCOC2)c2nc(N3C[C@@H]4C[C@H]3C[C@H]4OCc3c(C4CCC5(CC4)CC5)noc3C3CC3)sc2c1 [Compound I-280]	%	115
O=C(O)c1cc([C@H]2CCOC2)c2nc(N3C[C@@H]4C[C@H]3C[C@H]4OCc3c(-c4c(F)cccc4Cl)noc3C3CC3)sc2c1 [Compound I-265]	%	146
O=C(O)c1ccc(N2C[C@@H]3C[C@H]2C[C@H]3OCc2c(-c3c(Cl)cccc3Cl)noc2C2CC2)nc1 [Compound I-55]	%	121
O=C(O)c1cc(OC2CC2)c2nc(N3C(=O)[C@@H]4C[C@H]3C[C@H]4OCc3c(-c4c(Cl)cccc4Cl)noc3C3CC3)sc2c1 [Compound I-297]	%	77
O=C(O)c1cc(C2CCC2)c2nc(N3C(=O)[C@@H]4C[C@H]3C[C@H]4OCc3c(-c4c(Cl)cccc4Cl)noc3C3CC3)sc2c1 [Compound I-296]	%	90
O=C(NS(=O)(=O)C1CCOC1)c1ccc(N2C(=O)[C@@H]3C[C@H]2C[C@H]3OCc2c(-c3c(Cl)cccc3Cl)noc2C2CC2)cc1F (stereo partly drawn) [Compound I-334]	%	180
O=C(O)c1cc(OCC(F)(F)F)c2nc(N3C[C@@H]4C[C@H]3C[C@H]4OC(=O)c3c(-c4c(Cl)cccc4Cl)noc3C3CC3)sc2c1 [Compound I-7]	%	162
O=C(O)c1cc(C2CC3(CCOCC3)C2)c2nc(N3C[C@@H]4C[C@H]3C[C@H]4OCc3c(-c4c(Cl)cccc4Cl)noc3C3CC3)sc2c1 [Compound I-257]	%	148
O=C(O)c1ccc(N2C[C@@H]3C[C@H]2C[C@H]3OCc2c(-c3c(Cl)cccc3Cl)noc2C2CC2)c(F)c1F [Compound I-110]	%	132
O=C(O)c1cc(C2CCOCC2)c2nc(N3C[C@@H]4C[C@H]3C[C@H]4OCc3c(-c4c(Cl)cccc4Cl)noc3C3CC3)sc2c1 [Compound I-254]	%	143
O=C(O)c1cnc(N2C[C@@H]3C[C@H]2C[C@H]3OCc2c(-c3c(Cl)cccc3Cl)noc2C2(F)CC2)c(F)c1 [Compound I-130]	%	152
O=C(O)C1Cc2ccc(N3C(=O)[C@@H]4C[C@H]3C[C@H]4OCc3c(-c4c(Cl)cccc4Cl)noc3C3CC3)cc2C1 (stereo partly drawn) [Compound I-313]	%	140
